Source listed as the supplement of paper PMC10567573.

B1: TSN (parent)
chain: FLAAEQDIREEIRKVVQSLEQTAR

variants of: B1; assay: protein stability index of a GFP-peptide fusion (GPS, HEK-293T) (PSI 1-6); higher = more stable; details: c terminus: a fixed tail appended;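 note: lentivirally expressed fusions sorted by FACS into six bins by GFP to DsRed ratio, PSI derived from sequencing read proportions per bin multiplied by bin number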
Recorded protein stability index values for a group of variants are listed next.
TEST_READOUT: protein stability index

- CHAIN_SEQUENCE: "FLAAEQDIREEIGKVVQSLEQTAR"
  MEASUREMENT: 1.94
- CHAIN_SEQUENCE: "FLAAEQDIREEIRKVVNSLEQTAR"
  MEASUREMENT: 2.15
- CHAIN_SEQUENCE: "FLAAEQDIREEIRKVVCSLEQTAR"
  MEASUREMENT: 2.3
- CHAIN_SEQUENCE: "FDAAEQDIREEIRKVVQSLEQTAR"
  MEASUREMENT: 1.73
- CHAIN_SEQUENCE: "FLAAEQDIREEIRKVVQTLEQTAR"
  MEASUREMENT: 2.18
- CHAIN_SEQUENCE: "FLIAEQDIREEIRKVVQSLEQTAR"
  MEASUREMENT: 1.87
- CHAIN_SEQUENCE: "FLAAEQDITEEIRKVVQSLEQTAR"
  MEASUREMENT: 2.06
- CHAIN_SEQUENCE: "FLAAEQDIREEIRKVVQSLEQTAS"
  MEASUREMENT: 2.16
- CHAIN_SEQUENCE: "FLAAEQDIRLEIRKVVQSLEQTAR"
  MEASUREMENT: 1.96
- CHAIN_SEQUENCE: "FLAAAQDIREEIRKVVQSLEQTAR"
  MEASUREMENT: 2.69
- CHAIN_SEQUENCE: "FLAAEQDWREEIRKVVQSLEQTAR"
  MEASUREMENT: 2.65
- CHAIN_SEQUENCE: "FLAAEQDIREECRKVVQSLEQTAR"
  MEASUREMENT: 1.58
- CHAIN_SEQUENCE: "FLAAEQDIREEIRKTVQSLEQTAR"
  MEASUREMENT: 2.61
- CHAIN_SEQUENCE: "FLAAEQDGREEIRKVVQSLEQTAR"
  MEASUREMENT: 4.12
- CHAIN_SEQUENCE: "FLAAEQDIREEIRKVVGSLEQTAR"
  MEASUREMENT: 1.92
- CHAIN_SEQUENCE: "FLAAEQDIREEIRKSVQSLEQTAR"
  MEASUREMENT: 3.07
- CHAIN_SEQUENCE: "FLAAEQDIREEIRKHVQSLEQTAR"
  MEASUREMENT: 2.8
- CHAIN_SEQUENCE: "FLAAEQDIREEIRKVVQSSEQTAR"
  MEASUREMENT: 3.33
- CHAIN_SEQUENCE: "FLAAEQDIREEIRKRVQSLEQTAR"
  MEASUREMENT: 3.31
- CHAIN_SEQUENCE: "FLAAEQDIREEIRKEVQSLEQTAR"
  MEASUREMENT: 4.34
- CHAIN_SEQUENCE: "FLAAEQDIREEIRKVVQSLTQTAR"
  MEASUREMENT: 2.3
- CHAIN_SEQUENCE: "FLAAEQDIRENIRKVVQSLEQTAR"
  MEASUREMENT: 3.58
- CHAIN_SEQUENCE: "FLAAEQDIREEIRKVVQSLEHTAR"
  MEASUREMENT: 1.8
- CHAIN_SEQUENCE: "FLAAEQDIREEIRFVVQSLEQTAR"
  MEASUREMENT: 1.48
- CHAIN_SEQUENCE: "FLAAEWDIREEIRKVVQSLEQTAR"
  MEASUREMENT: 2.75
- CHAIN_SEQUENCE: "QLAAEQDIREEIRKVVQSLEQTAR"
  MEASUREMENT: 2.23
- CHAIN_SEQUENCE: "FCAAEQDIREEIRKVVQSLEQTAR"
  MEASUREMENT: 1.82
- CHAIN_SEQUENCE: "FLAATQDIREEIRKVVQSLEQTAR"
  MEASUREMENT: 3.32
- CHAIN_SEQUENCE: "FLAAEQDIREEIRKVVQSLEQTNR"
  MEASUREMENT: 1.8
- CHAIN_SEQUENCE: "FLAAECDIREEIRKVVQSLEQTAR"
  MEASUREMENT: 1.65
- CHAIN_SEQUENCE: "FLAAEQQIREEIRKVVQSLEQTAR"
  MEASUREMENT: 1.3
- CHAIN_SEQUENCE: "FLAARQDIREEIRKVVQSLEQTAR"
  MEASUREMENT: 2.66
- CHAIN_SEQUENCE: "FLAAEQDIREEIRKVVQSLEATAR"
  MEASUREMENT: 2.14
- CHAIN_SEQUENCE: "FLAAEQDIRDEIRKVVQSLEQTAR"
  MEASUREMENT: 1.63
- CHAIN_SEQUENCE: "FLAAEQDIREEKRKVVQSLEQTAR"
  MEASUREMENT: 3.98
- CHAIN_SEQUENCE: "FLAAEQDIREEIRKVVQNLEQTAR"
  MEASUREMENT: 2.25
- CHAIN_SEQUENCE: "FLAAEQDIMEEIRKVVQSLEQTAR"
  MEASUREMENT: 2.11
- CHAIN_SEQUENCE: "FLAAEQDIREEIRKVVQSLKQTAR"
  MEASUREMENT: 2.29
- CHAIN_SEQUENCE: "FLAAEQDIREEIRKVVQSLEQQAR"
  MEASUREMENT: 2.1
- CHAIN_SEQUENCE: "FLAAEQDIREEIRKVVQSLEITAR"
  MEASUREMENT: 2.27
- CHAIN_SEQUENCE: "FLAAEQMIREEIRKVVQSLEQTAR"
  MEASUREMENT: 1.73
- CHAIN_SEQUENCE: "FLAAQQDIREEIRKVVQSLEQTAR"
  MEASUREMENT: 2.71
- CHAIN_SEQUENCE: "FLAAEQDILEEIRKVVQSLEQTAR"
  MEASUREMENT: 2.26
- CHAIN_SEQUENCE: "FLAAEQDIREEIRKVTQSLEQTAR"
  MEASUREMENT: 1.68
- CHAIN_SEQUENCE: "FLAAEQDIREEIRKVVQSEEQTAR"
  MEASUREMENT: 4.16
- CHAIN_SEQUENCE: "FLAAEQEIREEIRKVVQSLEQTAR"
  MEASUREMENT: 1.89
